// provenance: patent US20250326725A1

test: Cell toxicity (CC50) in EV68 assay; settings: EV68 CC50
READOUT LABEL: CC50 (µM)

1) COc1ccc(-c2sc(NC(C)(C)c3ccccc3)nc2C)cc1S(=O)(=O)Nc1c(C)cccc1F; 100
2) COc1ccc(-c2sc(NC(C)(C)C3CCOCC3)nc2C)cc1S(=O)(=O)NC1CCN(C(C)=O)CC1; 66.2
3) COc1ccc(-c2sc(NC(C)(C)c3ncccn3)nc2C)cc1S(=O)(=O)Nc1ccccc1C(F)(F)F; 100
4) COc1ccc(-c2sc(NC(C)(C)c3ccccc3)nc2C)cc1S(=O)(=O)Nc1ccncc1C(F)(F)F; 33.5
5) COc1ccc(-c2sc(NC(C)(C)C3CCOCC3)nc2C)cc1S(=O)(=O)NC1CCN(S(C)(=O)=O)CC1; 102
6) COc1ccc(-c2sc(N[C@H](C)c3ccccc3)nc2C)cc1S(=O)(=O)Nc1c(C)cccc1F; 100
7) COC(=O)N1CCC(NS(=O)(=O)c2cc(-c3sc(NC(C)(C)c4ccccc4)nc3C)ccc2OC)CC1; 5.23

* * *

assay: Caco-2 permeability assay; assay type: in vitro ADME; conditions: human, read-out: Caco2 Papp × 1e−6 cm/s
Classify by measured Papp: condition met if it is equal to or exceeds 8 ×10⁻⁶ cm/s, condition not met if it is smaller.

1) COc1ccc(-c2sc(NC(C)(C)c3ccccc3)nc2C)cc1S(=O)(=O)NC1CCN(C(C)=O)CC1; condition met
2) COc1ccc(-c2sc(NC(C)(C)c3cccnc3)nc2C)cc1S(=O)(=O)Nc1c(C)cccc1F; condition not met
3) COc1ccc(-c2sc(NC(C)(C)C3CCOCC3)nc2C)cc1S(=O)(=O)Nc1cccnc1C; condition not met
4) COc1ccc(-c2sc(NC(C)(C)C3CCOCC3)nc2C)cc1S(=O)(=O)Nc1c(C)cccc1F; condition not met
5) COc1ccc(-c2sc(NC(C)(C)c3ccccc3)nc2C)cc1S(=O)(=O)Nc1c(C)cccc1F; condition not met

* * *

Reported CC50 values for the following compounds.
assay: Cell toxicity (CC50) in EV71 assay; conditions: EV71 CC50
READOUT LABEL: CC50

1. COc1ccc(-c2oc(NC(C)(C)c3ccccn3)nc2C)cc1S(=O)(=O)Nc1ccncc1C [Compound S-47]; 21.1 µM
2. COc1ccc(-c2oc(NC(C)(C)c3cccnc3)nc2C)cc1S(=O)(=O)Nc1ccncc1C [Compound S-48]; 100 µM
3. COc1ccc(-c2sc(NC(C)(C)C3CCN(C(C)=O)CC3)nc2C)cc1S(=O)(=O)Nc1cccnc1C [Compound S-21]; 91.3 µM
4. COc1ccc(-c2sc(NC(C)(C)C3CCNCC3)nc2C)cc1S(=O)(=O)Nc1cccnc1C [Compound S-53]; 47.9 µM
5. COc1ccc(-c2sc(NC(C)(C)C3CCOCC3)nc2C)cc1S(=O)(=O)Nc1c(C)cc(F)cc1F [Compound S-28]; 100 µM
6. COc1ccc(-c2sc(NC3(C4CCOCC4)CC3)nc2C)cc1S(=O)(=O)Nc1cccnc1C [Compound S-16]; 21.2 µM
7. COc1ccc(-c2sc(N[C@H](C)c3ccccc3)nc2C)cc1S(=O)(=O)Nc1c(C)cccc1F [Compound S-75]; 100 µM
8. COc1ccc(-c2sc(NC(C)(C)c3ncccn3)nc2C)cc1S(=O)(=O)Nc1ccccc1C(F)(F)F [Compound S-35]; 100 µM
9. COc1ccc(-c2sc(NC(C)(C)C3CCOCC3)nc2C)cc1S(=O)(=O)NC1CCN(S(C)(=O)=O)CC1 [Compound S-13]; 99.4 µM
10. COc1ccc(-c2sc(NC(C)C3CCOCC3)nc2C)cc1S(=O)(=O)Nc1c(C)cccc1F (stereo not shown) [Compound S-76]; 36 µM
11. COc1ccc(-c2sc(NC(C)(C)C3CCOCC3)nc2C)cc1S(=O)(=O)Nc1ccncc1C(F)(F)F [Compound S-26]; 88.7 µM
12. COc1ccc(-c2oc(NC(C)(C)c3ccccc3)nc2C)cc1S(=O)(=O)Nc1c(C)cccc1F [Compound S-65]; 31.3 µM
13. COc1ccc(-c2sc(NC(C)(C)C3CCOCC3)nc2C)cc1S(=O)(=O)Nc1ccc(F)cc1C(F)F [Compound S-30]; 20.2 µM
14. COC(=O)N1CCC(NS(=O)(=O)c2cc(-c3sc(NC(C)(C)c4ccccc4)nc3C)ccc2OC)CC1 [Compound S-36]; 71.3 µM
15. COc1ccc(-c2sc(NC34CC(C3)C4)nc2C)cc1S(=O)(=O)Nc1c(C)cccc1F [Compound S-55]; 100 µM
16. COc1ccc(-c2sc(NC(C)(C)c3ccccc3)nc2C)cc1S(=O)(=O)Nc1ccncc1C(F)(F)F [Compound S-44]; 18.2 µM
17. COc1ccc(-c2sc(NC(C)(C)c3cccnc3)nc2C)cc1S(=O)(=O)Nc1c(C)cccc1F [Compound S-39]; 99 µM
18. COc1ccc(-c2sc(NC(C)(C)C3CCOCC3)nc2C)cc1S(=O)(=O)Nc1c(C)ncnc1C [Compound S-17]; 99.9 µM
19. COc1ccc(-c2sc(NC(C)(C)C3CCOCC3)nc2C)cc1S(=O)(=O)Nc1cccnc1C [Compound S-3]; 86.6 µM

* * *

Reported CC50 values for the following compounds.
assay: Cell toxicity (CC50) in EV68 assay; conditions: EV68 CC50
READOUT LABEL: CC50

1. COc1ccc(-c2sc(NC(C)(C)C3CCOCC3)nc2C)cc1S(=O)(=O)Nc1cccnc1C(F)(F)F [Compound S-15]; 63.7 µM
2. COc1ccc(-c2sc(NC(C)(C)c3ccccn3)nc2C)cc1S(=O)(=O)Nc1c(C)cccc1F [Compound S-45]; 73.2 µM
3. COc1ccc(-c2sc(N[C@@H](C)c3ccccc3)nc2C)cc1S(=O)(=O)Nc1c(C)cccc1F [Compound S-74]; 100 µM
4. COc1ccc(-c2sc(NC3(C4CCOCC4)CC3)nc2C)cc1S(=O)(=O)Nc1ccccc1Cl [Compound S-19]; 39.4 µM
5. COc1ccc(-c2oc(NC(C)(C)c3ccccc3)nc2C)cc1S(=O)(=O)Nc1cccnc1C [Compound S-33]; 5.23 µM
6. COCC(C)(C)Nc1nc(C)c(-c2ccc(OC)c(S(=O)(=O)Nc3c(C)cccc3F)c2)s1 [Compound S-63]; 40.6 µM
7. COc1ccc(-c2sc(NC(C)(C)C3CCOCC3)nc2C)cc1S(=O)(=O)Nc1cccnc1OC [Compound S-18]; 80 µM
8. COc1ccc(-c2sc(NC(C)(C)c3ccccc3)nc2C)cc1S(=O)(=O)NC1CCN(S(C)(=O)=O)CC1 [Compound S-57]; 100 µM
9. COc1ccc(-c2sc(NC(C)(C)C3CCOCC3)nc2C)cc1S(=O)(=O)NC1CCS(=O)(=O)CC1 [Compound S-11]; 43.3 µM
10. COc1ccc(-c2sc(NC(C)(C)C3CCOCC3)nc2C)cc1S(=O)(=O)Nc1nccn1C [Compound S-29]; 102 µM
11. COc1ccc(-c2sc(NC(C)(C)C3CCOCC3)nc2C)cc1S(=O)(=O)Nc1c(F)cccc1C(F)F [Compound S-31]; 61.8 µM
12. COc1ccc(-c2sc(NC(C)(C)C3CCOCC3)nc2C)cc1S(=O)(=O)Nc1c(C)cc(F)cc1F [Compound S-28]; 77.6 µM
13. COc1ccc(-c2sc(NC(C)(C)C3CCOCC3)nc2C)cc1S(=O)(=O)Nc1ncc[nH]1 [Compound S-24]; 13.4 µM
14. COc1ccc(-c2sc(NC(C)(C)C3CCOCC3)nc2C)cc1S(=O)(=O)Nc1ncccc1C [Compound S-25]; 24 µM
15. COc1ccc(-c2oc(NC(C)(C)c3ccccc3)nc2C)cc1S(=O)(=O)Nc1c(C)cccc1F [Compound S-65]; 1.7 µM
16. COc1ccc(-c2oc(NC(C)(C)c3ccccn3)nc2C)cc1S(=O)(=O)Nc1ccncc1C [Compound S-47]; 49.1 µM
17. COc1ccc(-c2sc(NC(C)(C)C3CCOCC3)nc2C)cc1S(=O)(=O)Nc1ccncc1C [Compound S-50]; 37.6 µM
18. COc1ccc(-c2sc(NC(C)(C)c3ncccn3)nc2C)cc1S(=O)(=O)Nc1c(C)cccc1F [Compound S-34]; 22.1 µM
19. COc1ccc(-c2sc(NC(C)(C)C3CCOCC3)nc2C)cc1S(=O)(=O)Nc1cncnc1C [Compound S-23]; 66.1 µM
20. COc1ccc(-c2sc(NC(C)(C)C3CCCCC3)nc2C)cc1S(=O)(=O)Nc1c(C)cccc1F [Compound S-58]; 100 µM
21. COc1ccc(-c2sc(NC34CC(C3)C4)nc2C)cc1S(=O)(=O)Nc1c(C)cccc1F [Compound S-55]; 22.1 µM
22. COc1ccc(-c2sc(NC(C)(C)C3CCOCC3)nc2C)cc1S(=O)(=O)Nc1ccc(F)cc1C(F)F [Compound S-30]; 6.45 µM
23. COc1ccc(-c2sc(NC(C)(C)c3ccncc3)nc2C)cc1S(=O)(=O)Nc1ccncc1C [Compound S-49]; 71.4 µM
24. COc1ccc(-c2sc(NC3(C4CCOCC4)CC3)nc2C)cc1S(=O)(=O)Nc1cccnc1C [Compound S-16]; 39.2 µM
